- protocol notes: soluble on expression in E. coli; label from the status in PepcDB or PDB records
endpoint label: soluble on expression in E. coli

Here are 5 sequences together with their reported answers.
AAIAEKDLGNAAYKQKDFEKAHVHYDKAIELDPSNITFYNNKAAVYFEEKKFAECVQFCEKAVEVGRETRADYKLIAKAMSRAGNAFQKQNDLSLAVQWFHRSLSEFRDPELVKKVKELEKQLKAAERLAYINPELAQEEKNKGNEYFKKGDYPTAMRHYNEAVKRDPENAILYSNRAACLTKLMEFQRALDDCDTCIRLDSKFIKGYIRKAACLVAMREWSKAQRAYEDALQVDPSNEEAREGVRNCLRSNDEDPEKAKERSLADPEVQEILRDPGMRMILEQMSNDPGAVREHLKNPEIFQKLMKLRD; not soluble
DLYFQGGSGMQCEEKLEVFENGFKDEKFNVEVKFYGNDARKVLLAMIYELYLPEYGREYVYPFECAKEFWNIYLEGEEIQDEEFQLKPIKFTSEQVIKKLQEEIKKIKPPLEIKIEEAKIYKTKEGYLAVGNYFILDPRGRLFIFNKPSIANKILKYIWKW; soluble
MEEPEEPADSGQSLVPVYIYSPEYVSMCDSLAKIPKRASMVHSLIEAYALHKQMRIVKPKVASMEEMATFHTDAYLQHLQKVSQEGDDDHPDSIEYGLGYDCPATEGIFDYAAAIGGATITAAQCLIDGMCKVAINWSGGWHHAKKDEASGFCYLNDAVLGILRLRRKFERILYVDLDLHHGDGVEDAFSFTSKVMTVSLHKFSPGFFPGTGDVSDVGLGKGRYYSVNVPIQDGIQDEKYYQICESVLKEVYQAFNPKAVVLQLGADTIAGDPMCSFNMTPVGIGKCLKYILQWQLATLILGGGGYNLANTARCWTYLTGVILGKTLSSEIPDHEFFTAYGPDYVLEITPSCRPDRNEPHRIQQILNYIKGNLKHVVIEGRGSHHHHHH; soluble
MSEVKYKRVILKLSGEALAGEKGFGINPPVIKTVAEELKDVYDMGVQIAIVVGGGNMWRGEAGAQMGMERAQADYIGMLATIMNALALQDNLESIGVPTRVQTSIEMRQIAEPYIRRKAMRHLEKRRIVIFAGGTGSPYFSTDTTAALRAAEINADAILMAKNGVDGVYSADPNKDASAVKFDTLTHLDIINKGLQVMDTTASSLSMDNDIPVVVFNLNEPGNIRKVVAGEHIGTTVRGKLEHHHHHH; soluble
MEVLLTETFYTIGRSPRADIRIKSQFVSRIHAVLVRKSSDDVQAAYRIIDGDEDGQSSVNGLMINGKKVQEHIIQTGDEIVMGPQVSVRYEYRRRDQFGTMLEHHHHHH; not soluble

# input Quote soluble on expression in E. coli reported for MSLSKIIFPGFIDLHNHFPQTQVIASYGTKLLEWLNKYTFPNESLFVDDKHCERESKIFLDLLNHNGITTSVSFGSVHPNSVEYLFQEAHRRNMCVIAGNVLMDRNAPDTVLEKADKSYLSSKEIISKWHNVSRCKYAITPRFAITSTPELMEVSQTLCAENQSCYVQTHLSENIDEIETTLELFPDQKDYLSIYDKYKLLSNKTLLAHSIHLEMSEIERMKETKSIAVHCPTSNLFLGSGLFKFKELEEKGVRTAIATDVGGGTSFSMLRTLDEAYKVQQLGNYSLNPLASYFWSTMEGHHHHHH please.
# output soluble

* * *

- protocol notes: soluble on expression in E. coli; label from the status in PepcDB or PDB records
endpoint label: soluble on expression in E. coli

Here are 4 sequences together with their reported answers.
MSLINARLIAFEDQWVPALNAPLKQAILADSQDAQLAAAMTYSVLAGGKRLRPLLTVATMQSLGVTFVPERHWRPVMALELLHTYSLIHDDLPAMDNDALRRGEPTNHVKFGAGMATLAGDGLLTLAFQWLTATDLPATMQAALVQALATAAGPSGMVAGQAKDIQSEHVNLPLSQLRVLHKEKTGALLHYAVQAGLILGQAPEAQWPAYLQFADAFGLAFQIYDDILDVVSSPAEMGKATQKDADEAKNTYPGKLGLIGANQALIDTIHSGQAALQGLPTSTQRDDLAAFFSYFDTERVNEGHHHHHH; soluble
MEEKVYLDKLAKRDIKPTAIRLLILKSMMEAGRAVSQLDLETLLDTVDKSTISRTITLFLSHHLIHSIDDGSGSWKYAVCDDSCNCVLKDLHSHFYCEKCHRTFCLEKIHIPVIDLPKGFTLHSVNYVVKGVCAECSKV; not soluble
MISVVGAGGKTSLLFWLAELLQASGRRVLITTTTHMFMPTSHWPVVFCRDPAMLPHASLTSPISFCFHSWKANQGKVQGFTPEAIDALVQRPECDVILIEADGSRGMPLKAPDEHEPCIPKSSCCVIAVMGGHTLGAKVSTENVHRWSQFADITGLTPDATLQLSDLVALVRHPQGAFKNVPQGCRRVWFINRFSQCENAIAQSELLQPLQQHDVEAIWLGDIQEHPAIARRFVNLEHHHHHH; not soluble
MNAPDKTGTDRRAVPAAVDLDALIRAEHRDPFSILGPHDDGKGGQYVRAYLPAALSVRLLARDDGRELAELHMSDVPGFFVGHLEQPQPYLLKINWAGGEQITEDPYSYGPLLG; not soluble

# input Return reported soluble on expression in E. coli. Input sequence: MKSLSYKRIYKSQEYLATLGTIEYRSLFGSYSLTVDDTVFAMVSDGELYLRACEQSAQYCVKHPPVWLTYKKCGRSVTLNYYRVDESLWRNQLKLVRLSKYSLDAALKEKSTRNTRERLKDLPNMSFHLEAILGEVGRLAP
# output not soluble

# input // Input: SEELDRQKIGGFWREVGVASDQSLVLTAPKRVEGLFLTLSGSNLTVKVAYNSSGSCEIEKIVGSEIDSTGKFAFPGKCSCPVMAGGTRLCTQLGLIVPHAVPCTVPHAVPCTVLCAVPCTVPHAVP . Output its soluble on expression in E. coli only.
# output soluble

# input Please report the measured soluble on expression in E. coli for MGSDKIHHHHHHMIPTFVVWSQSMFNDAIVYDRYGPPAAVLTLKRLPLAPLAGGRVRVRMRFAPVNPSDLIPVTGAYRHRTRLPAVAGYEGLGEVVAAPYGSRLAAGQRVLPLRGGGTWQRFIDLDETWLVPVPPAVDDLLAARGYINPLTAMLMLKRWPVAGKHLVLTAASSSCASLLGQWALAMGARSVSGIIRSPQHRARLEQAGIYPILDTDRALMEKVSQHSDLVFDAVGGELANTLLSVLPGSSTLISYGLLSGRPLTQTRGSATVRKFHLREALPTLSVAAWRAAFDEIWQRLPTTSQPPAQRIALNDWRAAIAAAGQPGRGGKILLDFTAG
# output not soluble

# input Look up and report measured soluble on expression in E. coli for this entry: MGSDKIHHHHHHMDGLLNPRESSKFIAENSRDVFIDSGGVRRVAELLLAKAAGPELRVEGWKALHELNPRAADEAAVNWVFVTDTLNFSFWSEQDEHKCVVRYRGKTYSGYWSLCAAVNRALDEGIPITSASYYATVTLDQVRNILRSDTDVSMPLVEERHRILNETGKILLEKFGGSFLNCVRESENSAQKLMHLVVESFPSYRDVTLFEGKRVSFYKRAQILVADTWSVLEGKGDGCFKDISSITMFADYRLPQVLAHLGALKYSDDLLKKLLKGEMLSYGDRQEVEIRGCSLWCVELIRDCLLELIEQKGEKPNGEINSILLDYYLWDYAHDHREDMKGIPFHRIRCIYY
# output not soluble

# input Give soluble on expression in E. coli for the following sequence: MKHILIIGATGQIGSELTMELRRRYGNTNVVAGYIQGAEPKGELKESGPSAVVDVTNGEMIESVVKEYHIDTIYNLAALLSVVAESKPKLAWKIGIDGLWNVLEVAREQGCAVFTPSSIGSFGASTPHTQTPQDTIQRPRTMYGVTKVTTELLSDYYFNKYGVDTRAVRFPGIISNVTPPGGGTTDYAVDIYYSAVRGEKFVCPIKEGTLMDMMYMPDALNAAIMLMEADPTKLIHRNAFNIASMSFDPETIFHAIKKHVPAFEMIYDVDPLKQRIADSWPDSLDDTCAREEWGWKPAYDLESMTVDMLEKLREKLKK
# output not soluble

# input Determine from records and report soluble on expression in E. coli for AMVSVSGIRKVQRAEGPATVLAIGTANPPNCVDQSTYADYYFRVTNSEHMTDLKKKFQRICERTQIKNRHMYLTEEILKENPNMCAYKAPSLDAREDMMIREVPRVGKEAATKAIKEWGQPMSKITHLIFCTTSGVALPGVDYELIVLLGLDPSVKRYMMYHQGCFAGGTVLRLAKDLAENNKDARVLIVCSENTSVTFRGPSETDMDSLVGQALFADGAAAIIIGSDPVPEVENPLFEIVSTDQQLVPNSHGAIGGLLREVGLTFYLNKSVPDIISQNINDALSKAFDPLGISDYNSIFWIAHPGGRAILDQVEEKVNLKPEKMKATRDVLSNYGNMSSACVFFIMDLMRKKSLEAGLKTTGEGLDWGVLFGFGPGLTIETVVLRSMAI
# output soluble

# input # return recorded soluble on expression in E. coli for input GAKSEMAFAGKGEISPRAITMWDFSWLERRWPGAGYEDWDQVLDELSERGYNAIRIDAYPHLIAENPMKKWLLKEVWNQQDWGSPDMNEVQVQPNLNLFLSKCKERDIKVGLSSWYRLDVDEVCLKLDTPEKLADCWLTILRSIEEDGLLDTILYVDLCNEWPGDSWAPFFAKTYPNVGWGNWYKEESLRWMKTSLEKMRQVYPDMPFLYSFDHGDVKKYEEVDCSFLDLYEHHIWMAQQNGGEFYKLVGYGYNRFLPDDYKNVVKNAERVYRERPGYWQKLLTDKIELMASVARKNRRPLVTTECWGLVDYKDWPLLKWDWVKDLCELGTITAARTGMWVGVATSNFCGPQFAGMWRDVEWHKRLTSIIRSSPLDESLTKNNEVAAKLLKRL
# output soluble
